The origin of these recorded values is patent US20230381281A1.

- Tested system: T1, human GIP receptor (human, UniProt P48546 22-466)
- T1 sequence (looked up): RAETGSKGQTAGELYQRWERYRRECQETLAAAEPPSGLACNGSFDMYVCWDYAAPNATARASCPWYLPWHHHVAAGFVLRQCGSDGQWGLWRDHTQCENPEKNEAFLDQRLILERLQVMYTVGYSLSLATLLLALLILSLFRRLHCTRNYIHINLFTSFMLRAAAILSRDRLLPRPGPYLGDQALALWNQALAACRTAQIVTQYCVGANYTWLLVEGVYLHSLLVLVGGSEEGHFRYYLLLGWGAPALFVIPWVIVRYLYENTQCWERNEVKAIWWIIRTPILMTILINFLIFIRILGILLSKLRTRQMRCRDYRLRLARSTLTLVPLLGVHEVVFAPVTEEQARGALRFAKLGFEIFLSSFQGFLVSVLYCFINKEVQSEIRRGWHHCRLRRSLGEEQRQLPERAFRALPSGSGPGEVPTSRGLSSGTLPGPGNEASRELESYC
- Assay procedure: cell-based or functional assay
Bridge positions count the residues as written; N and C are the ends. Square brackets hold non-standard residues; d marks the D form. Ends that are not written are not given here. * marks the point of attachment. Acetyl(2-(4-imidazolyl)) = O=C(Cc1c[nH]cn1)*; Aib = CC(C)(N)C(=O)O
Endpoint: In vitro activity compared to native peptide (%) vs GIP

| Binder | Result |
| --- | --- |
| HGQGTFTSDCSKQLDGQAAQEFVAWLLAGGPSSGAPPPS [Triple agonist of SEQ ID NO: 44] | < 0.1% |
| {Acetyl(2-(4-imidazolyl))}-[Aib]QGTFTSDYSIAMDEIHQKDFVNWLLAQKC (bridge 15-19) [Triple agonist of SEQ ID NO: 92] | 0.4% |
| {Acetyl(2-(4-imidazolyl))}-[Aib]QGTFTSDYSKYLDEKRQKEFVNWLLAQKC (bridge 15-19) [Triple agonist of SEQ ID NO: 93] | 0.7% |
| Y[Aib]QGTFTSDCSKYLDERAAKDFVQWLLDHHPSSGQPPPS (bridge 16-20) [Triple agonist of SEQ ID NO: 72] | 1.6% |
| Y[Aib]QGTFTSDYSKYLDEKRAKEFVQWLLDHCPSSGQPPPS (bridge 16-20) [Triple agonist of SEQ ID NO: 96] | 5.2% |
| H[Aib]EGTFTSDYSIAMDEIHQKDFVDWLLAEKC (bridge 16-20) [Triple agonist of SEQ ID NO: 80] | 0.1% |
| Y[Aib]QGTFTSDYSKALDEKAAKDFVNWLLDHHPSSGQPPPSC (bridge 16-20) [Triple agonist of SEQ ID NO: 99] | 57.7% |
| H[Aib]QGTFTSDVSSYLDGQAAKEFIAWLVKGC [Triple agonist of SEQ ID NO: 1] | < 0.1% |
| Y[Aib]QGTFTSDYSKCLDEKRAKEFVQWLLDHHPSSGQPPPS (bridge 16-20) [Triple agonist of SEQ ID NO: 22] | 59.7% |
| {Acetyl(2-(4-imidazolyl))}-[Aib]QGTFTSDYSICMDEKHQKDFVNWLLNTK (bridge 15-19) [Triple agonist of SEQ ID NO: 59] | 4% |
| {Acetyl(2-(4-imidazolyl))}-[Aib]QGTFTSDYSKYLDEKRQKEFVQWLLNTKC (bridge 15-19) [Triple agonist of SEQ ID NO: 88] | < 0.1% |
| H[Aib]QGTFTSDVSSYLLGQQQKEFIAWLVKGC [Triple agonist of SEQ ID NO: 4] | < 0.1% |
| Y[Aib]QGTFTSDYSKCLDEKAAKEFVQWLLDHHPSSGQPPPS (bridge 16-20) [Triple agonist of SEQ ID NO: 68] | 107% |
| H[Aib]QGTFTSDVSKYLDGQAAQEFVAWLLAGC [Triple agonist of SEQ ID NO: 9] | < 0.1% |
| Y[Aib]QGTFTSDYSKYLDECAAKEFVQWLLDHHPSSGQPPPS (bridge 16-20) [Triple agonist of SEQ ID NO: 64] | 92.9% |
| {Acetyl(2-(4-imidazolyl))}-[Aib]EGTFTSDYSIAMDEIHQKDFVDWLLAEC (bridge 15-19) [Triple agonist of SEQ ID NO: 84] | < 0.1% |
| {Acetyl(2-(4-imidazolyl))}-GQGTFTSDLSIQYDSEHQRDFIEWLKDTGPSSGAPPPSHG [Triple agonist of SEQ ID NO: 19] | < 0.1% |
| {Acetyl(2-(4-imidazolyl))}-[Aib]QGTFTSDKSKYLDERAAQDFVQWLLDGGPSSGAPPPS [Triple agonist of SEQ ID NO: 62] | < 0.1% |
| {Acetyl(2-(4-imidazolyl))}-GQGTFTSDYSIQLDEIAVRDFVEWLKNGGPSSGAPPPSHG [Triple agonist of SEQ ID NO: 14] | < 0.1% |
| Y[Aib]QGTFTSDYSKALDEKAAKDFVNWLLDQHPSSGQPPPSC (bridge 16-20) [Triple agonist of SEQ ID NO: 102] | 58% |
| H[Aib]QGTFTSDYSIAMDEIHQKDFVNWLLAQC (bridge 16-20) [Triple agonist of SEQ ID NO: 55] | 2.4% |
| H[Aib]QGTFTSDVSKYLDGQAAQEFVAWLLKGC [Triple agonist of SEQ ID NO: 8] | < 0.1% |
